Tested on: Non-malignant fibroblasts N-1
Experiment: MTT cytotoxicity assay, non-malignant fibroblasts N-1
Assay type: cell-based
Conditions: Fibroblast; non-malignant fibroblasts, MTT, 48 h; read-out: IC50, growth inhibition, Fibroblasts
Attribute: pIC50
Just the number, please; pIC50 means minus log10 of the concentration in mol/L.

Per the reported Non-malignant fibroblasts N-1 data, O=C(Oc1cc(OC(=O)c2cc(O)c(Br)c(O)c2)c2ccccc2c1)c1cc(O)c(Br)c(O)c1 has pIC50 of 4.10

Per the reported Non-malignant fibroblasts N-1 data, COC(=O)c1cc(OC(=O)c2cc(O)c(O)c(O)c2)c2ccccc2c1OC(=O)c1ccc(O)cc1 has pIC50 of 4.17

Per the reported Non-malignant fibroblasts N-1 data, COC(=O)c1cc(OC(=O)c2cc(O)c(O)c(O)c2)c2ccccc2c1OC(=O)c1cccc(O)c1 has pIC50 of 4.40

* * *

Tested on: Non-malignant fibroblasts N-1
Experiment: MTT cytotoxicity assay, non-malignant fibroblasts N-1
Type: cell-based
Settings: up to doses three-fold their cytotoxic IC50 value in tumoral cells
Property Label: effects in cell death / morphology changes in non-malignant cells

Recorded results for 5 compounds are shown here.
Smiles Repr: Cc1cc(OC(=O)c2cc(O)c(O)c(O)c2)ccc1OC(=O)c1cc(O)c(O)c(O)c1
Data Value: No significant effects
--
Smiles Repr: O=C(Oc1ccc(-c2ccc(OC(=O)c3cc(O)c(O)c(O)c3)cc2)cc1)c1cc(O)c(O)c(O)c1
Data Value: No significant effects
--
Smiles Repr: COC(=O)c1cc(OC(=O)c2cc(O)c(O)c(O)c2)c2ccccc2c1OC(=O)c1cc(O)c(Br)c(O)c1
Data Value: No significant effects
--
Smiles Repr: COC(=O)c1cc(OC(=O)c2cc(O)c(O)c(O)c2)c2ccccc2c1OC(=O)c1ccc(O)cc1
Data Value: No significant effects
--
Smiles Repr: O=C(Oc1cc(OC(=O)c2cc(O)c(O)c(O)c2)c2ccccc2c1)c1cc(O)c(O)c(O)c1
Data Value: No significant effects

For record O=C(Oc1ccc(OC(=O)c2cc(O)c(O)c(O)c2)c2ccccc12)c1cc(O)c(O)c(O)c1 the listed effects in cell death / morphology changes in non-malignant cells is No significant effects

For record COc1cc(OC(=O)c2cc(O)c(O)c(O)c2)ccc1OC(=O)c1cc(O)c(O)c(O)c1 the listed effects in cell death / morphology changes in non-malignant cells is No significant effects

For record O=C(Oc1ccc(OC(=O)c2ccc(O)c(O)c2)c2ccccc12)c1ccc(O)c(O)c1 the listed effects in cell death / morphology changes in non-malignant cells is No significant effects

For record O=C(Oc1ccc(OC(=O)c2cc(O)c(O)c(O)c2)c2c1CCCC2)c1cc(O)c(O)c(O)c1 the listed effects in cell death / morphology changes in non-malignant cells is No significant effects

For record O=C(Oc1ccc2cc(OC(=O)c3cc(O)c(O)c(O)c3)ccc2c1)c1cc(O)c(O)c(O)c1 the listed effects in cell death / morphology changes in non-malignant cells is No significant effects

For record O=C(Oc1cccc2c(OC(=O)c3cc(O)c(O)c(O)c3)cccc12)c1cc(O)c(O)c(O)c1 the listed effects in cell death / morphology changes in non-malignant cells is No significant effects

For record O=C(Oc1cc2c(c(OC(=O)c3cc(O)c(O)c(O)c3)c1)CCCC2)c1cc(O)c(O)c(O)c1 the listed effects in cell death / morphology changes in non-malignant cells is No significant effects

For record O=C(Oc1cc(OC(=O)c2cc(O)c(Br)c(O)c2)c2ccccc2c1)c1cc(O)c(Br)c(O)c1 the listed effects in cell death / morphology changes in non-malignant cells is No significant effects

For record COC(=O)c1cc(OC(=O)c2cc(O)c(O)c(O)c2)c2ccccc2c1OC(=O)c1cccc(O)c1 the listed effects in cell death / morphology changes in non-malignant cells is No significant effects

For record O=C(Oc1ccc(-c2ccc(OC(=O)c3cc(O)cc(O)c3)cc2)cc1)c1cc(O)cc(O)c1 the listed effects in cell death / morphology changes in non-malignant cells is No significant effects

For record O=C(Oc1cc(OC(=O)c2ccc(O)c(O)c2)c2ccccc2c1)c1ccc(O)c(O)c1 the listed effects in cell death / morphology changes in non-malignant cells is No significant effects

* * *

Molecular target: FASN (Homo sapiens)
Construct: endogenous in cells; host or cells: SK-Br3 breast cancer cells
Sequence (P49327 whole entry): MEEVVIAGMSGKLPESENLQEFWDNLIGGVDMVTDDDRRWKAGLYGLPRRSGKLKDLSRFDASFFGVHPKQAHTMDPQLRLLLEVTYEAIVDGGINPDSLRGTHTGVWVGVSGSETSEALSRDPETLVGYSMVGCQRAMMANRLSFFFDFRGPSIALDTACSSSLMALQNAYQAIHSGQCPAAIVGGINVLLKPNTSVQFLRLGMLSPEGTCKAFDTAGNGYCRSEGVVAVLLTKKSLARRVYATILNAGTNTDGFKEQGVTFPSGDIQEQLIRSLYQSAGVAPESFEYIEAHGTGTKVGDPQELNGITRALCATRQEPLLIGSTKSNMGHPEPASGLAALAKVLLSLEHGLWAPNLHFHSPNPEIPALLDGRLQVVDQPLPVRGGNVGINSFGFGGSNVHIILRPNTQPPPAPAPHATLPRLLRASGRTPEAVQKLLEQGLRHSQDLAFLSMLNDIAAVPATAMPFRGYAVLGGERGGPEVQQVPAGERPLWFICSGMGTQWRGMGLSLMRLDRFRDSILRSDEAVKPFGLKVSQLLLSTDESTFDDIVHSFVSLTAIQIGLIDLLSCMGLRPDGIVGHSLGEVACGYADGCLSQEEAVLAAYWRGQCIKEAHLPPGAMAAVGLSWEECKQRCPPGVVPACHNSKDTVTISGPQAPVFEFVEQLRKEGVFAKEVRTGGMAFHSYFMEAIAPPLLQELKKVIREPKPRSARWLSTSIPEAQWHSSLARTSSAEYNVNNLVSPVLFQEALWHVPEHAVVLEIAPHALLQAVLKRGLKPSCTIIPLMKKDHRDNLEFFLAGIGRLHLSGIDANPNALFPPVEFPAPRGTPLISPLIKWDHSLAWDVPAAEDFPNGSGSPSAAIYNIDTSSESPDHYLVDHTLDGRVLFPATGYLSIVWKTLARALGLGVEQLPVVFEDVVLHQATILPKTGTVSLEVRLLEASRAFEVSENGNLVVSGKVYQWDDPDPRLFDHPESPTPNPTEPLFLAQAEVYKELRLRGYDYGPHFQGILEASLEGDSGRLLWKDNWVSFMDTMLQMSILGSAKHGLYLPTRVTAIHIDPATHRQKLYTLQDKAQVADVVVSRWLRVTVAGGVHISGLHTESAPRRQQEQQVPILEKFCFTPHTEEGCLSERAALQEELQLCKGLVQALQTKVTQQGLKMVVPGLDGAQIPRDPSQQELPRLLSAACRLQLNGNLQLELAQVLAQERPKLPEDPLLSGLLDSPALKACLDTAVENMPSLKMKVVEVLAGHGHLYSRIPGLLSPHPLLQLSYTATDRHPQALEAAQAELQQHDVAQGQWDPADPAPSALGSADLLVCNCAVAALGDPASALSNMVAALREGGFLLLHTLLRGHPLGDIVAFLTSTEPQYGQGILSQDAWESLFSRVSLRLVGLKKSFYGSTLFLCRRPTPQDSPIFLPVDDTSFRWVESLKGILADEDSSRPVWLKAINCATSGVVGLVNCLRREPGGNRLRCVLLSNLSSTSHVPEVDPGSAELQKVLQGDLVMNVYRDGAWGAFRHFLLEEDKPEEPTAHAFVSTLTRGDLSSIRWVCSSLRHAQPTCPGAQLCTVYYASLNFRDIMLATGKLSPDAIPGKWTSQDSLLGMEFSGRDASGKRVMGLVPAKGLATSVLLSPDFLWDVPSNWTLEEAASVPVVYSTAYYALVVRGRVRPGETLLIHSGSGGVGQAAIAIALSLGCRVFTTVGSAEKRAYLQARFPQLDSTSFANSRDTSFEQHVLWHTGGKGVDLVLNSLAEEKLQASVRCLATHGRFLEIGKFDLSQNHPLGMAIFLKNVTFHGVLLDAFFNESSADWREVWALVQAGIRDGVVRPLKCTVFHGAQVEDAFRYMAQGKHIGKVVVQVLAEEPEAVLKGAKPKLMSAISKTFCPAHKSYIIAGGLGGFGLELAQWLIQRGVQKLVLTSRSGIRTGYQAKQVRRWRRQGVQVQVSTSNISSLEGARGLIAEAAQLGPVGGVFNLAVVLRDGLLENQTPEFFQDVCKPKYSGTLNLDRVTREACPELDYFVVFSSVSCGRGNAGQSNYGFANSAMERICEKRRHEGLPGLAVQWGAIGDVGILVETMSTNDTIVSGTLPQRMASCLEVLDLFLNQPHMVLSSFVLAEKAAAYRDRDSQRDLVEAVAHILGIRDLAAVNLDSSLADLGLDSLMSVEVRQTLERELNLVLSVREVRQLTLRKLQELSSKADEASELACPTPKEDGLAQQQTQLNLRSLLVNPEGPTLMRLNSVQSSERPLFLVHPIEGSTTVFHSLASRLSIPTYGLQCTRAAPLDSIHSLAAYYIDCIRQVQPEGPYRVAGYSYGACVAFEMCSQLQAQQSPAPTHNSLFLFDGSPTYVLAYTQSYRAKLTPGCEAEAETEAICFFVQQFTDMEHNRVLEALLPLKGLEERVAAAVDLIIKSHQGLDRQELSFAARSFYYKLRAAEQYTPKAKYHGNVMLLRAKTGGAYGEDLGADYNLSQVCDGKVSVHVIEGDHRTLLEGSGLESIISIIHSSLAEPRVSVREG
Test: Fatty acid synthase activity assay in SK-Br3 cells (NADPH oxidation, particle-free supernatants)
Assay type: cell-based
Set-up: concentration or dose not given beside the values
Details: SK-Br3 cells, 24 h exposure
Procedure: FASN activity of compounds a, b, e, f, h, i, k, m and q was assayed in particle-free supernatants by recording spectrophotometrically at 37° C. […] The sample was then added to the reaction mixture: 200 mM potassium phosphate buffer, pH 7.0, 1 mM EDTA (Sigma), 1 mM dithiothreitol (Sigma), 30 μM acetyl-CoA (Sigma), 0.24 mM NADPH (Sigma), in 0.3 mL reaction volume were monitored at 340 nm for 3 min to measure the background NADPH oxidation. […]
Attribute: FASN activity, % of control cells
A number alone suffices; assume %.

For record O=C(Oc1ccc(OC(=O)c2cc(O)c(O)c(O)c2)c2ccccc12)c1cc(O)c(O)c(O)c1 the listed FASN activity, % of control cells is 31

For record O=C(Oc1ccc(-c2ccc(OC(=O)c3cc(O)c(O)c(O)c3)cc2)cc1)c1cc(O)c(O)c(O)c1 the listed FASN activity, % of control cells is 20

* * *

Attribute: melting point

Recorded results for 10 compounds are shown here.
Smiles Repr: O=C(Oc1ccc(OC(=O)c2cc(O)cc(O)c2)c2ccccc12)c1cc(O)cc(O)c1
Property Label: melting point
Data Value: 201 to 203 °C
--
Smiles Repr: O=C(Oc1ccc(OC(=O)c2ccccc2)c(-c2ccccc2)c1)c1cc(O)c(O)c(O)c1
Property Label: melting point
Data Value: 82 to 84 °C
--
Smiles Repr: O=C(Oc1ccc(-c2ccc(OC(=O)c3ccc(O)c(O)c3)cc2)cc1)c1ccc(O)c(O)c1
Property Label: melting point
Data Value: 286 °C (dec.)
--
Smiles Repr: COc1cc(C(=O)Oc2ccc(-c3ccc(OC(=O)c4ccc(O)c(O)c4)cc3)cc2)cc(O)c1O
Property Label: melting point
Data Value: 240 °C (dec.)
--
Smiles Repr: O=C(Oc1ccc(-c2ccc(OC(=O)c3cc(O)c(Br)c(O)c3)cc2)cc1)c1ccc(O)c(O)c1
Property Label: melting point
Data Value: 252 to 254 °C
--
Smiles Repr: Cc1c(O)cc(C(=O)Oc2ccc(OC(=O)c3cc(O)c(C)c(O)c3)c3c2CCCC3)cc1O
Property Label: melting point
Data Value: 204 °C (dec.)
--
Smiles Repr: O=C(Oc1cc(OC(=O)c2cc(O)cc(O)c2)c2ccccc2c1)c1cc(O)cc(O)c1
Property Label: melting point
Data Value: 167 to 169 °C
--
Smiles Repr: O=C(Oc1ccc(-c2ccc(OC(=O)c3cc(O)nc(O)c3)cc2)cc1)c1cc(O)nc(O)c1
Property Label: melting point
Data Value: 285 °C (dec.)
--
Smiles Repr: COc1cc(C(=O)Oc2cc(OC(=O)c3cc(O)c(O)c(OC)c3)c3ccccc3c2)cc(O)c1O
Property Label: melting point
Data Value: 260 °C (dec.)
--
Smiles Repr: O=C(Oc1ccc(OC(=O)c2cc(O)c(O)c(O)c2)c(-c2ccccc2)c1)c1cc(O)c(O)c(O)c1
Property Label: melting point
Data Value: 114 to 116 °C

For record O=C(Oc1cccc(OC(=O)c2cc(O)c(O)c(O)c2)c1)c1cc(O)c(O)c(O)c1 the listed melting point is 194 to 195 °C

For record O=C(Oc1cc2ccccc2cc1OC(=O)c1cc(O)c(O)c(O)c1)c1cc(O)c(O)c(O)c1 the listed melting point is 182 to 183 °C

For record O=C(Oc1ccccc1OC(=O)c1cc(O)c(O)c(O)c1)c1cc(O)c(O)c(O)c1 the listed melting point is 210 °C

* * *

Tested on: MDA-MB-231 breast cancer cells
Experiment: MTT cytotoxicity assay, MDA-MB-231 breast cancer cells
Format: cell-based, human
Settings: MDA-MB-231 cells, 48 h, read-out: IC50, growth inhibition, MDA-MB-231
Property Label: IC50 (µM)
A number alone suffices; assume µM.

Per the reported MDA-MB-231 breast cancer cells data, O=C(O[C@@H]1Cc2c(O)cc(O)cc2O[C@@H]1c1cc(O)c(O)c(O)c1)c1cc(O)c(O)c(O)c1 [EGCG, (−)-epigallocatechin-3-gallate, reference compound] has IC50 of 197

* * *

System: Non-malignant fibroblasts N-1
Test: MTT cytotoxicity assay, non-malignant fibroblasts N-1
Format: cell-based
Conditions: Fibroblast; non-malignant fibroblasts, MTT, 48 h; read-out: IC50, growth inhibition, Fibroblasts
Property Label: pIC50
Just the number, please; pIC50 means minus log10 of the concentration in mol/L.

Recorded results for 3 compounds are shown here.
Smiles Repr: COC(=O)c1cc(OC(=O)c2cc(O)c(O)c(O)c2)c2ccccc2c1OC(=O)c1cc(O)c(Br)c(O)c1
Data Value: 4.04

Smiles Repr: O=C(Oc1ccc(-c2ccc(OC(=O)c3cc(O)cc(O)c3)cc2)cc1)c1cc(O)cc(O)c1
Data Value: 4.48

Smiles Repr: O=C(Oc1cc(OC(=O)c2ccc(O)c(O)c2)c2ccccc2c1)c1ccc(O)c(O)c1
Data Value: 3.98

For record O=C(Oc1ccc(OC(=O)c2cc(O)c(O)c(O)c2)c2c1CCCC2)c1cc(O)c(O)c(O)c1 the listed pIC50 is 3.89

For record O=C(Oc1ccc(OC(=O)c2ccc(O)c(O)c2)c2ccccc12)c1ccc(O)c(O)c1 the listed pIC50 is 4.17

For record O=C(Oc1ccc(-c2ccc(OC(=O)c3cc(O)c(O)c(O)c3)cc2)cc1)c1cc(O)c(O)c(O)c1 the listed pIC50 is 4.89

The reported numbers originate from patent US20100190856A1.
